# System: TAB113
# PROCEDURE DETAILS: qHTS profiling for inhibitors of Plasmodium falciparum proliferation (AID 504749); also: nearly all actives have a fitted effect of over 60% in size
# SETTINGS: P. falciparum in erythrocytes, SYBR Green DNA, 72 h; series mostly up to 12.8 µM
Inconclusive results are not listed. Calls of active or inactive are those of the source. Calls follow the shape of the dose curve; as a rule, active = well fitted inhibition curve with a large enough effect; inconclusive = small, poorly fitted or top-dose-only effect; inactive = flat fitted curve, though single readings scatter.
MEASUREMENT TYPE: outcome

COMPOUND | MEASUREMENT TYPE | RESULT
CN[C@@H](CC(C)C)C(=O)N[C@@H]1C(=O)N[C@H](CC(N)=O)C(=O)N[C@@H]2C(=O)N[C@H]3C(=O)N[C@H](C(=O)N[C@H](C(=O)O)c4cc(O)cc(O)c4-c4cc3ccc4O)[C@H](O)c3ccc(c(Cl)c3)Oc3cc2cc(c3O[C@H]2O[C@@H](CO)[C@@H](O)[C@@H](O)[C@@H]2O[C@@H]2C[C@](C)(N)[C@H](O)[C@H](C)O2)Oc2ccc(cc2Cl)[C@@H]1O | outcome | inactive
NC(=O)OC[C@H](O)COc1ccc(Cl)cc1 | outcome | inactive
O=C(Cc1cccs1)NC1C(=O)N2C(C(=O)[O-])=C(C[n+]3ccccc3)CSC12 (stereo not drawn) | outcome | inactive
